# Tested on: OVCAR-5 ovarian
# Procedure Details: NCI-60 one-dose screen, 48 h (100 = growth as untreated, 0 = no growth, -100 = all killed)
# Test Parameters: 10 µM unless noted
The panel holds about 83,000 compounds, 20% with a hit somewhere; the sample as a whole holds those more often.
Can you tell me growth for the items I'm about to list?
Give bare numbers, in %.

Check out these entries, answers already filled in.
# Compound, Readout Type, Endpoint Result
measured = [
    ("O=C(CSc1nccc(Nc2ccc(S(=O)(=O)Nc3nccs3)cc2)n1)c1ccc(C(F)(F)F)cc1", "growth", 111),
    ("CC(C)c1cc(C(C)C)c(S(=O)(=O)Oc2ccc(NC(=O)c3ccc(Cl)cc3)cc2)c(C(C)C)c1", "growth", 86.4),
    ("N#Cc1c(-c2ccc(Cl)cc2)nc2c(c(-c3ccccc3)nn2-c2ccccc2)c1-c1ccc(O)cc1", "growth", 84),
]

Please state, for each entry, its recorded growth.
1. Cc1nc2ccccc2c(/C=C/c2ccc(Cl)cc2)c1C(=O)/C=C/c1cccs1
2. CCOc1ccc2nc(SCc3nc4n(n3)S(=O)(=O)c3ccccc3N4C)sc2c1
3. N#Cc1c(-c2ccc(Cl)cc2)nc(NCCO)[nH]c1=O

92.6
-9.82
91.6

Hey, quick one: what's growth for each of these?
1. COc1ccc2sc3c(NCCO)nc4ccccc4c3c(=O)c2c1
2. COc1cccc(OC)c1C(=O)N[C@@H]1C(=O)N2[C@@H]1SC(C)(C)[C@@H]2C(=O)O
3. COc1ccc(-c2nc(NN)c3c(C)nn(-c4ccc(F)cc4)c3n2)cc1
4. O=C(Nc1ccc(F)cc1F)c1cc(F)ccc1O
5. O=C(O)c1cn(C2CC2)c2cc(N3CCN(C(=O)Nc4nc(-c5ccc(Cl)cc5)cs4)CC3)c(F)cc2c1=O
6. O=C(O)CCC(=O)Nc1nnc(-c2ccccc2)s1
7. CCOC(=O)C1=C(N)Oc2c(sc3c(C)cccc23)C1c1ccc(Cl)cc1 (centres undefined)

1: 102; 2: 110; 3: 95.6; 4: 23.3; 5: 27.5; 6: 107; 7: 41.6

Quick one: growth for O=C(CCOCCNC(=O)COc1ccc2c(c1)OCC(c1ccc(F)cc1)C2=O)NCCCC(O)(P(=O)(O)O)P(=O)(O)O (centres undefined) ?
103

---

# Test system: NCI-H23 lung
# Procedure Details: NCI-60 one-dose screen, 48 h (100 = growth as untreated, 0 = no growth, -100 = all killed)
# Test Parameters: 10 µM unless noted
The panel holds about 83,000 compounds, 20% with a hit somewhere; the sample as a whole holds those more often. The source made the active and inactive calls. Rule for the calls: active = growth percent below 10; inactive = the rest.
For each entry below, report its growth value.

Solved entries:
# Compound, Measured Target, growth
records = [
    ("CCCSc1nc2ccc(C)cc2cc1/C=[N+](\\[O-])c1ccccc1", "NCI-H23 lung", "42.1% (inactive)"),
    ("Nc1nc(-c2cccc3ccccc23)cc2ccccc12", "NCI-H23 lung", "11.1% (inactive)"),
    ("COc1cccc(Cc2cc(-c3ccccc3)nn(CC(=O)c3ccccc3)c2=O)c1", "NCI-H23 lung", "74.2% (inactive)"),
]

List growth for every entry below, keeping the order given.
1. COc1cc(Nc2cn[nH]c2-c2ccc(Cl)cc2)cc(OC)c1OC
2. CC(=O)O.CN1[CH-]N(Cc2ccc(C#N)cc2)c2ccccc21.[Ag+]
3. C=CCNc1ccc2c3c(cccc13)C(=O)N(N1C(=O)c3cccc4cccc(c34)C1=O)C2=O
4. O=c1[nH]c2c(ccc3cnccc32)c2c1CCC2
5. c1ccc2c(c1)Nc1ccncc1S2
6. COc1ccc(-c2ncnc3c2ncn3CC#CCCl)cc1
7. O=C(Nc1ccc(Cl)cc1F)c1cc(Cl)ccc1O
8. Brc1ccc2[nH]cc(-c3nc(-c4c[nH]c5ccncc45)cs3)c2c1

6.84% (active)
105% (inactive)
91.9% (inactive)
-64.6% (active)
99.5% (inactive)
59.1% (inactive)
-20% (active)
-41.6% (active)

I have 2 compounds here; please give me growth for each one.
1. CCCCNC(=O)Oc1ccc(/C(=C(\C)c2ccc(Cl)cc2)c2ccc(OCCN3CCCCC3)cc2)cc1
2. COc1cc(/C=C/c2ccccc2)cc(OC)c1

["78.8% (inactive)", "86.6% (inactive)"]

Hey, just so you know, these numbers are from PubChem BioAssay (NCI).
